- PROCEDURE_TEXT: protein stability index of a GFP-peptide fusion (yeast GPS) (PSI 1-4); higher = more stable; sorted into four equal gates, so the index is relative within each strain
- TEST_CONTEXT: pdr5∆
The following sequences are listed with their measured protein stability index values.
When you answer, write just the number.

> print(dat)
               residue.codes             assay.metric  readout.value
1  DRVAKVLTYPEKVTRYN [RPO31]  protein stability index           2.92

Exercise: Name the recorded protein stability index for RRGAHGSELSSKIRKIH [SIR3] .
Solution: 2.02

Exercise: Which protein stability index is reported for this sequence? LQSDKNFLDNCLFENDL [ITC1]
Solution: 3.03

Exercise: Quick one: protein stability index for SPMGAQPSYNSAIIENA [GAL11] ?
Solution: 2.96

Exercise: Consider the sequence PHATATEKEPVPAVVDD [SNF6] and give its measured protein stability index.
Solution: 3.08

Exercise: Return reported protein stability index; argument: LRQKHEFLEDFDLVRNI [SMC2]
Solution: 3.05
